I'd appreciate it if you could supply Kd values for the items below.
- assay_target: T1, EsCas13d, nuclease-dead (Eubacterium siraeum, UniProt B0MS50, R295A;H300A;R849A;H854A)
- T1 sequence: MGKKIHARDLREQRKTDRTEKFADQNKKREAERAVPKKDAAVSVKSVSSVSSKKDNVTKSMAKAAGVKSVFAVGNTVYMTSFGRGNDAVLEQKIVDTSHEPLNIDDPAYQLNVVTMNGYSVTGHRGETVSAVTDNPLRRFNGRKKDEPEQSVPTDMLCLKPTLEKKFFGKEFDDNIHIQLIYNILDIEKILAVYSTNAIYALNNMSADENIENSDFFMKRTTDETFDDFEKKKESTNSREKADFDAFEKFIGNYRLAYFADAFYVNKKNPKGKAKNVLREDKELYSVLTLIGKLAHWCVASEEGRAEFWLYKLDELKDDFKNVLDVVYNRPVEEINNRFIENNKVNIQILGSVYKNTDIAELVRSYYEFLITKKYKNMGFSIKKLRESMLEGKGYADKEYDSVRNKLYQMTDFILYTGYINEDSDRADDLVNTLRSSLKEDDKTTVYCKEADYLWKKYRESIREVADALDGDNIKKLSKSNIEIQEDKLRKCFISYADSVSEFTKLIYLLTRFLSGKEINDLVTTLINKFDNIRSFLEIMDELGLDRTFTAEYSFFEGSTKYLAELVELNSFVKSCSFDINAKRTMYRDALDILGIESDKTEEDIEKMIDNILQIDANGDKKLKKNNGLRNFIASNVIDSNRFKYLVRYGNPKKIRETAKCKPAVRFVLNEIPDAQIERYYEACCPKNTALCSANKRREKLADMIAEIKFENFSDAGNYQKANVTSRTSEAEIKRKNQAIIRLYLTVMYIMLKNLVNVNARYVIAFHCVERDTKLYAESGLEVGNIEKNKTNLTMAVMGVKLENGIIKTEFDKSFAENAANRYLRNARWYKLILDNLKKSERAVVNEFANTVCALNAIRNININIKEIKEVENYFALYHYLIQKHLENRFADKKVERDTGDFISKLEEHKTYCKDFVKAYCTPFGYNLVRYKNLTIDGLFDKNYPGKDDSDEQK
- measurement_protocol: crRNA (strand 1, pre-loaded); Mg2+; 40 mM Tris-HCl pH 7.5, 150 mM NaCl, 6 mM MgCl2, 1 mM DTT, 0.1% Tween-20, 0.2 mg/ml BSA; 25 C; 10 min per concentration, then washed
- experimental_context: tags: His6-TwinStrep-SUMO cleaved; N-terminal SNAP kept (SNAP-Surface 488); label: 3' end held by stalled T7 RNA polymerase
Give bare numbers, in nM.

target 1 insU 3' of 20,insA 3' of 7 (mixed) RNA 1: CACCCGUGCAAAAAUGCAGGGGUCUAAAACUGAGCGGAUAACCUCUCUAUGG RNA 2: GGGAAUGGAUCCACAUCUACGAAUUCGUACCAUUAGAGAGGUUAUCACGCUCACCGAGAUCGGAAGAGCACACGU	9.9

// query Given the entry target 1 MT 5'PFS CCU 3'PFS ACU (mixed) RNA 1: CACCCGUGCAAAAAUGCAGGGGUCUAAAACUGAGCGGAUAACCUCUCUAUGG RNA 2: GGGAAUGGAUCCACAUCUACGAAUUCCCUCCAUAGAGAGGUUAUCCGCUCAACUAGAUCGGAAGAGCACACGU , report its measured Kd.
// result 16.5
